Values were extracted from PubChem BioAssay (NCI).

system: SF-295 CNS; experiment: NCI-60 one-dose screen, 48 h; conditions: 10 µM unless noted
Compounds without any hit were thinned out: in the full panel of roughly 83,000, 20% have a hit. The source made the active and inactive calls. Rule for the calls: active = growth percent below 10; inactive = the rest.
Hi! Could you answer with just one of these? true (1) (active), false (0) (inactive)

Here's what some known entries look like.
N#Cc1nc(-c2ccc(F)cc2)oc1S(=O)(=O)N1CCOCC1: false (0)
C#CCOc1cccc(Nc2ncnc3ccc(NC(=O)C=C)cc23)c1: false (0)
C1CCC([PH+](C2CCCCC2)C2CCCCC2[PH+](C2CCCCC2)C2CCCCC2)CC1.[Au].[CH-]1CCCCC1C1CCCC[N-]1 (centres undefined): true (1)

Ask | Each compound tested received a call. Report the one for "O=C1Nc2ccc(C(=O)O)cc2/C1=N/c1nnc(Sc2ccccc2)s1" .
Reply | false (0)

Ask | Each compound tested received a call. Report the one for CCN1C(=S)N(c2ccccc2)C2C1NN=c1s/c(=C3\C(=O)N(C(C)C)c4ccccc43)c(=O)n12 (centres undefined) .
Reply | false (0)

Ask | Each compound tested received a call. Report the one for O=C(NCc1ccc(Cl)cc1Cl)C1CCC(=O)N1c1cccs1 (centres undefined) .
Reply | false (0)

Ask | Each compound tested received a call. Report the one for "CC/C(=C(/c1ccc(Cl)cc1)c1ccc(OCCN(C)C)cc1)c1ccc(Cl)cc1" .
Reply | false (0)

Ask | Each compound tested received a call. Report the one for CCOC(=O)C1=C(c2ccccc2)N=C2SC=C(c3ccc(Cl)cc3)N2C1c1ccc(Br)cc1 (centres undefined) .
Reply | false (0)
